FYI, the data here is from PubChem BioAssay.

- test-method-notes: reversal of MRP1-mediated doxorubicin resistance, pilot screen, H69AR cells, doxorubicin co-treatment (AID 601)
- measurement-conditions: H69AR cells + 2 uM doxorubicin, CellTiter-Glo, 72 h; at 10 µM; stronger effect = higher value
property: differential viability (reversal) (%)

CC(=O)Nc1c(I)c(NC(C)=O)c(I)c(C(=O)O)c1I : 1.03
O=C(NCC1CCCO1)C1CC(c2ccc(Cl)c(Cl)c2)=NO1 (stereo not given) : -1.44
Cc1nc(CNS(=O)(=O)c2cccc(F)c2)cs1 : 1.23
COc1ccc(S(=O)(=O)N2CCC(C(=O)NCc3ccco3)CC2)cc1 : -1.91
CN(Cc1ccccc1)Cc1nc2c([nH]1)c(=O)[nH]c(=O)n2C : 8.36

----------
- test-method-notes: growth suppression of yeast trafficking mutant, preliminary HTS, modulators of trafficking downstream of Golgi apparatus project, 1536-format plate, OD 615 nm (AID 637)
- measurement-conditions: yeast transport mutant growth, absorbance 615 nm, 18 h; stronger effect = higher value
property: inhibition (%)

CCCS(=O)(=O)N1CCCC(C(=O)NC(C)c2ccc3c(c2)OCCO3)C1 (centres undefined) : 0.49
N#CC(C(=O)Nc1ccc(Cl)c(Cl)c1)=C1Nc2ccccc2N1 : -1.61
Cc1ccc2[nH]c(=O)c(CN(CCc3ccccc3)Cc3nnnn3CC3CCCO3)cc2c1 (centres undefined) : -5.87
CCOc1cc2[nH]c(=O)n(CCCCC(=O)NCc3ccco3)c(=O)c2cc1OCC : 1.97
Cc1cc(NC(=O)CSc2nnc(C3CC3)n2C)no1 : -2.91
COc1ccccc1NC(=O)NCc1ccc2c(c1)OCO2 : -3.82
O=C(CSc1oc(-c2ccco2)nc1S(=O)(=O)c1ccccc1)NCC1CCCO1 (centres undefined) : -0.16
CN1CCN(C2=Nc3ccccc3Oc3ccc(Cl)cc32)CC1 : -1.83
NC(=O)c1c(NC(=O)Cc2cccs2)sc2c1CCC2 : -6.94
CN(C)c1ccc(NC(=O)c2ccncc2)c2ccccc12 : -0.73
C=CCn1c(SCc2cc(=O)n3ccsc3n2)nnc1C1CCCCC1 : -0.16
CN(c1ccccc1C(=O)NCC1CCCO1)S(C)(=O)=O (centres undefined) : 2.36
COc1ccc(C(=O)NCCc2nnc(SCc3nc4ccccc4c(=O)[nH]3)n2C)cc1 : 2.42
Cc1cc(C)n(CCCNC(=O)c2ccc(S(=O)(=O)NCc3ccco3)cc2)n1 : 3.17
COCCn1c(=O)[nH]c2cc(C(=O)N3CCN(Cc4ccc5c(c4)OCO5)CC3)ccc2c1=O : 9.34
O=C(NC1CC2CCC1C2)C1COc2ccccc2O1 (centres undefined) : -2.38
CC(=O)Nc1nc2c(c3c1c(=O)oc1ccccc13)CC(C)CC2 (centres undefined) : -2.79
CCOC(=O)c1ccc(NS(=O)(=O)c2ccc(SC)cc2)cc1 : -3.81
S=c1[nH]c2ccc(Cl)cc2[nH]1 : 6.35

----------
- test-method-notes: growth inhibitors of H69AR lung tumor, primary screen, human, duplicate replicates (AID 580);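 further: 100% = mean luminescence of untreated wells and 0% = no signal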
- measurement-conditions: H69AR lung tumor cells viability, ATP luminescence, 72 h; at 10 µM
The source made the active and inactive calls.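 How the source made its calls: active means viability at or under a set limit in both replicates, limit being median viability minus 3 SD (cut at about 48% in these data, passing the limit was not always enough); inconclusive means at or under the limit in just one replicate; inactive means at or above the limit in both replicates.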
Outcomes: active, inactive

O=C(C1CCCO1)N1CCc2ccccc21 (centres undefined) : inactive
Nc1cccc(C(=O)O)c1 : inactive
O=C(Nc1cc(C(F)(F)F)ccc1N1CCCC1)c1ccc2c(c1)OCO2 : inactive
CCCCNC(=O)c1nnn(-c2ccccc2)c1N : inactive
COc1ccccc1C1N(c2ccc(F)cc2)C(=O)C2CCCN21 (centres undefined) : inactive
COC(=O)CCn1nnc(-c2ccc(C)cc2)n1 : inactive
Cc1nc2scc(-c3ccco3)c2c(=O)n1/N=C/N(C)C : inactive
CCN1C(=O)C(C(=O)Nc2ccc(OC)cc2)C2CC1(C)Oc1ccccc12 (centres undefined) : inactive
O=C(CCCN1CCC(O)(c2ccc(Cl)cc2)CC1)c1ccc(F)cc1 : inactive
N#CC1=C(N)N(c2ccc(Oc3ccccc3)cc2)C(=O)C1 : inactive
CCN(CC)S(=O)(=O)c1ccc(NC(=O)c2cccc3c2C(=O)N(CCOC)C3)cc1 : inactive
Cc1cccc(NC(=O)CN(C)S(=O)(=O)c2ccccc2)n1 : inactive
COCCOC(=O)C1=C(C)NC(C)=C(C(=O)OC(C)C)C1c1cccc([N+](=O)[O-])c1 (centres undefined) : inactive
CN(C)c1cccc(C(=O)OCC(=O)NCc2ccco2)c1 : inactive
Cn1c(=O)[nH]c(=O)c2c1nc(Br)n2CCCSc1nc2ccccc2o1 : active
CCCCn1c(SCc2ccc(Cl)cc2)nc2c1c(=O)[nH]c(=O)n2C : inactive
CCOC(=O)C1CCN(C(C)=C2C(=O)c3ccccc3C2=O)CC1 : inactive
COc1ccccc1CNC(=O)Nc1cccs1 : inactive
C#CCSc1nc(-c2cccs2)ccc1C#N : inactive
CCN=C1SC(CC(=O)Nc2ccccc2OCC)C(=O)N1CC (centres undefined) : inactive
Cc1nc(NC(=O)c2csc3ccccc23)sc1C : inactive
Cc1oc2c(c1C(=O)NCc1ccccc1)CCCC2 : inactive
O=C(c1ccc(CNS(=O)(=O)c2cccc(C(F)(F)F)c2)cc1)N1CCOCC1 : inactive
COc1ccccc1C1(CC(=O)N2CCOCC2)CCOC(C(C)C)C1 (centres undefined) : inactive
Cc1nc(N)[nH]c(=O)c1CCC(=O)OCC(C)C : inactive
CCc1nc(SCC(=O)NCc2ccco2)c2c3c(sc2n1)CCCC3 : inactive
O=C(O)c1ccc(COc2c(F)c(F)c(F)c(F)c2F)o1 : inactive
COc1ccc2c(c1)c(CC(=O)O)c(C)n2C(=O)c1ccc(Cl)cc1 : inactive
CCOC(=O)NC(=O)CSc1nnc(C)s1 : inactive

----------
- test-method-notes: reversal of MRP1-mediated doxorubicin resistance, pilot screen, H69AR cells, doxorubicin co-treatment (AID 601)
- measurement-conditions: H69AR cells + 2 uM doxorubicin, CellTiter-Glo, 72 h; at 10 µM; stronger effect = higher value
property: differential viability (reversal) (%)

COC(=O)CNC(=O)COC(=O)c1cc(Cl)cc(Cl)c1N : -2.94
Cc1cc(Cl)ccc1OCC(=O)Nn1c(C)ccc1C : 11.1
CCOC(=O)N1CCN(C(=O)c2ccc3c(=O)n(Cc4ccc(OC)cc4)c(=S)[nH]c3c2)CC1 : 47.4
O=C1NCCCc2c1no[n+]2[O-] : 4.5

----------
- test-method-notes: reversal of MRP1-mediated doxorubicin resistance, pilot screen, H69AR cells, doxorubicin co-treatment (AID 601)
- measurement-conditions: H69AR cells, CellTiter-Glo, 72 h; compound alone cytotoxicity; at 10 µM
property: viability (%)

C[N+](C)(C)CCOP(=O)([O-])OC[C@H](O)CO : 96
CCOC(=O)c1cccc(NC(=O)CSc2nc3cccnc3n2C)c1 : 93.2
Cc1cncn1CCc1nc2c3ccccc3nc(=S)n2[nH]1 : 88.8
CCCc1cc(=O)[nH]c(=S)[nH]1 : 84
Cc1ccc2c(C)nc(Nc3nc(CSc4nnnn4-c4ccccc4)cc(=O)[nH]3)nc2c1 : 50.7
COc1ccc(-c2cc(N3CCCC3)n3ncnc3n2)cc1 : 87.2
COC(=O)c1ccc(CN(c2ccccc2OC)S(=O)(=O)c2cccs2)o1 : 86.2
CC(=O)N1CCc2cc(S(=O)(=O)NCCC(=O)NC3CCCc4ccccc43)ccc21 (configuration not stated) : 88.9
CCC(C)NCC(O)COCc1ccc(Cl)cc1 (configuration not stated) : 99.7
COc1ccc(N(CC(=O)Nc2ccc(F)c(Cl)c2)S(=O)(=O)c2c(C)noc2C)cc1 : 81.5
COc1cccc(OCC(=O)Nc2ccccc2C(N)=O)c1 : 97
O=C(Cc1ccc(S(=O)(=O)N2CCCC2)s1)Nc1nc2c(s1)CCCC2 : 95.7
CCOC(=O)c1sc2nc(N3CCCC3)c3c(c2c1N)CC(C)(C)OC3 : 53.1
O=C(c1cccs1)c1cn(CC(=O)N2CCc3ccccc3C2)c2ccccc12 : 86.9
Cc1noc(C)c1CSc1nc2ccccc2s1 : 67.8
CCC(=O)Nc1nn(C)c2nc3c(C)cccc3cc12 : 104
O=C(Nc1ccccc1C(=O)NCCCn1ccnc1)c1ccccc1 : 96.8

----------
- test-method-notes: 384-well plate pilot, post-Golgi transport modulator project, inhibition of yeast transport mutant growth (AID 636)
- measurement-conditions: absorbance 615 nm, about 18 h, stronger effect = higher value
property: inhibition (%)

COc1ccc(C(=O)NCCC(C)C)cc1S(=O)(=O)N1CCOCC1 : -9.86
CCOc1cccc(C(=O)N(Cc2ccco2)C2CCS(=O)(=O)C2)c1 (stereo not drawn) : -5.95
CCOC(=O)CS(=O)(=O)c1nc(-c2ccccc2)cc(C(F)(F)F)n1 : 0.39
CCOc1ccccc1-n1c(SCC(=O)NC2CCCC2)nnc1-c1ccoc1C : 0.91
Cc1ccc(NC(=O)CSc2nnc(CCCCCNC(=O)OC(C)(C)C)o2)c(C)c1 : 1.71
O=C(CSc1nc(O)cc(=O)n1-c1ccccc1)N1CCCCC1 : -6.44
Cc1cccc(NC(=O)C2CCCN(C(=O)Nc3ccccc3)C2)c1C (stereo not drawn) : -1.04
O=C(C1CCN(c2nnc(-n3cccc3)s2)CC1)N1CCN(Cc2ccc3c(c2)OCO3)CC1 : 3.59
N/C(=N/O)c1nc(N2CCCCC2)nc(N2CCCCC2)n1 : -0.65
Cc1ccc2nsnc2c1S(=O)(=O)N1CCN(Cc2ccc3c(c2)OCO3)CC1 : -3.03
CCCCCC1CC(CC#CCN2CCOCC2)C(=O)O1 (stereo not drawn) : -7.4
CC(NCCc1ccc(O)cc1)C(O)c1ccc(O)cc1 (stereo not drawn) : -2.73
COc1ccc(CC(=O)Nc2c3c(nn2-c2cccc(Cl)c2)CS(=O)C3)cc1 (stereo not drawn) : -2.73
COc1ccc(CC(=O)Nc2ccc(OC)c(NC(=O)c3ccco3)c2)cc1 : 4
O=C(OCC(=O)c1ccccc1Br)c1ccccn1 : -3.77
Cc1c(NC(=O)c2cnn3c2NC(c2ccco2)CC3C(F)(F)F)c(=O)n(-c2ccccc2)n1C (stereo not drawn) : -2.47
CCc1cccc2c3c([nH]c12)C(CC)(CC(=O)O)OCC3 (stereo not drawn) : 1.56
Cc1cc(C)nc(N2CCC(C(=O)Nc3ccc4c(c3)CCC4)CC2)n1 : -4.74
